SYSTEM UNDER TEST: human GLP-1 receptor (hGLP1R) (human, UniProt P43220 24-463)
MEASUREMENT DESCRIPTION: cell-based or functional assay
Numbered stars: 1 amine (or outer) side, 2 acyl side, 3 side chain; on linkers, the order of the positions; unused ones are H or OH. Square brackets hold non-standard residues; d marks the D form. Side chains are listed from the residue outwards. Ends that are not written are not given here. * marks the point of attachment. C20 diacid = O=C(O)CCCCCCCCCCCCCCCCCCC(=O)*; γGlu = O=C(O)[C@H](CCC(=O)[*:2])N[*:1]; AEEA = NCCOCCOCC(=O)O; Aib = CC(C)(N)C(=O)O
pEC50 hGLPR1 for assorted binders

Here's what some known entries look like.
1) H[Aib]EGTFTSDVSTLK([AEEA-AEEA-γGlu-C20 diacid])EEAASQRFLEHLV-NH2 [SEQ ID NO: 6] = 10.5 -log M
2) H[Aib]EGTFTSDVSRLK([AEEA-AEEA-γGlu-C20 diacid])EFAAAQRFLEHLV-NH2 [SEQ ID NO: 2] = 10.1 -log M
3) H[Aib]EGTFTSDVSELK([AEEA-AEEA-γGlu-C20 diacid])ETAA[Aib]QRFLEHLV-NH2 [SEQ ID NO: 45] = 10.7 -log M

As a next step, examine the binder that follows.
Entry H[Aib]EGTFTSDVSRLK([AEEA-AEEA-γGlu-C20 diacid])EEAASQRFLEHLV-NH2 [SEQ ID NO: 17] has what pEC50 hGLPR1?
10.6 -log M
